protocol.notes: Protein binding in rat plasma
Assay type: ADME, cell-free
experimental.context: read-out: PPB (converted)
quantity.measured: fraction unbound

1: CC(C)C[C@H](NC(=O)[C@@H](NC(=O)c1cccc(-c2ccccc2)n1)[C@@H](C)O)B(O)O [DELANZOMIB]
2: CC(C)C[C@H](NC(=O)[C@H](Cc1ccccc1)NC(=O)c1cnccn1)B(O)O [BORTEZOMIB]
Which one would you say has the larger fraction unbound value: 1 , or 2 ? Selection: enter the item's label.
2
(2: 0.069, 1: 0.001)

----------
protocol.notes: Inhibition of chymotrypsin-like activity of human 20S proteasome in Molt4 cells
Format: cell-based
experimental.context: molt-4
quantity.measured: EC50 (nM)

Consider the reported EC50 for these compounds:
Item under review: `CC(C)C[C@H](NC(=O)[C@@H](NC(=O)c1ccc2ccccc2c1)[C@@H](C)O)B(O)O` . Reported EC50?
27

Item under review: `CC(C)C[C@H](NC(=O)[C@@H](NC(=O)c1cnccn1)[C@@H](C)O)B(O)O` . Reported EC50?
1350

Item under review: `CC(C)C[C@H](NC(=O)[C@@H](NC(=O)c1ccc(-c2ccccc2)cc1)[C@@H](C)O)B(O)O` . Reported EC50?
21

1: CC(C)C[C@H](NC(=O)[C@@H](NC(=O)c1cc(-c2ccccc2)ccn1)[C@@H](C)O)B(O)O
2: CC(C)C[C@H](NC(=O)[C@@H](NC(=O)c1ncccc1-c1ccccc1)[C@@H](C)O)B(O)O
Which one would you say has the larger EC50 value: 1 , or 2 ? Selection: enter the item's label.
2
(2: 13000 nM, 1: 18.6 nM)

1: CC(C)C[C@H](NC(=O)[C@@H](NC(=O)c1cccc(-c2ccccc2)c1)[C@@H](C)O)B(O)O
2: CC(C)C[C@H](NC(=O)[C@@H](NC(=O)c1cncc(-c2ccccc2)n1)[C@@H](C)O)B(O)O
Which of these two has the smaller recorded EC50: 1 or 2 ? Selection: enter the item's label.
1
(1: 16.9 nM, 2: 27 nM)

----------
protocol.notes: Metabolic stability in rat liver microsomes
Format: ADME, Microsome
quantity.measured: half-life (min)

Item under review: CC(C)C[C@H](NC(=O)[C@H](Cc1ccccc1)NC(=O)c1cnccn1)B(O)O [BORTEZOMIB] . Reported half-life?
16

Item under review: CC(C)C[C@H](NC(=O)[C@@H](NC(=O)c1cccc(-c2ccccc2)n1)[C@@H](C)O)B(O)O [DELANZOMIB] . Reported half-life?
15

----------
protocol.notes: Metabolic stability in human liver microsomes
Type: ADME, Microsome
quantity.measured: half-life (min)
The reply should be a number in min, with the unit left off.

Item under review: `CC(C)C[C@H](NC(=O)[C@H](Cc1ccccc1)NC(=O)c1cnccn1)B(O)O` . Reported half-life?
37

----------
assayed.system: UniProtKB P08311
Sequence (P08311 whole entry): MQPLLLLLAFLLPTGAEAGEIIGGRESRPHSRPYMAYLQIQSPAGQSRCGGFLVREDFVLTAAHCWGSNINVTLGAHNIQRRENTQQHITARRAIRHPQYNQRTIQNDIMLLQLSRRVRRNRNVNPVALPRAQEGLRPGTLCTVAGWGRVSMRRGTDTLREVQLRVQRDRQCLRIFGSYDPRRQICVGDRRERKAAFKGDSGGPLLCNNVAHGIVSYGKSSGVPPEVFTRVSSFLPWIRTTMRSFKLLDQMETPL
quantity.measured: IC50 (µM)

I: CC(C)C[C@H](NC(=O)[C@@H](NC(=O)c1cccc(-c2ccccc2)n1)[C@@H](C)O)B(O)O
II: CC(C)C[C@H](NC(=O)[C@H](Cc1ccccc1)NC(=O)c1cnccn1)B(O)O
Which of these two has the smaller recorded IC50: I or II ? Selection: enter the item's label.
II
(II: 0.52 µM, I: 2.11 µM)

----------
protocol.notes: AUC (0 to infinity) in CD1 mouse at 10 mg/kg, po
Type: ADME, organism-based
Design: time infinity, dose 10 mg/kg, route oral
experimental.context: plasma
quantity.measured: AUC(0-inf) (ng·h/mL)
The reply should be a number in ng·h/mL, with the unit left off.

Item under review: `CC(C)C[C@H](NC(=O)[C@@H](NC(=O)c1cccc(-c2ccccc2)n1)[C@@H](C)O)B(O)O` . Reported AUC(0-inf)?
2850

----------
protocol.notes: Clearance in Sprague-Dawley rat at 0.2 mg/kg, iv
Type: ADME, organism-based
Parameters: dose 0.2 mg/kg, route intravenous
experimental.context: in vivo
quantity.measured: clearance (mL/min/kg)
The reply should be a number in mL/min/kg, with the unit left off.

Item under review: `CC(C)C[C@H](NC(=O)[C@@H](NC(=O)c1cccc(-c2ccccc2)n1)[C@@H](C)O)B(O)O` . Reported clearance?
3.17

----------
protocol.notes: Clearance in CD1 mouse at 0.8 mg/kg, iv
Format: ADME, organism-based
Design: dose 0.8 mg/kg, route intravenous
experimental.context: in vivo
quantity.measured: clearance (mL/min/kg)
The reply should be a number in mL/min/kg, with the unit left off.

Item under review: CC(C)C[C@H](NC(=O)[C@H](Cc1ccccc1)NC(=O)c1cnccn1)B(O)O [BORTEZOMIB] . Reported clearance?
14.3

----------
protocol.notes: Clearance in CD1 mouse at 4 mg/kg, iv
Format: ADME, organism-based
Design: dose 4 mg/kg, route intravenous
experimental.context: in vivo
quantity.measured: clearance (mL/min/kg)
The reply should be a number in mL/min/kg, with the unit left off.

Item under review: `CC(C)C[C@H](NC(=O)[C@@H](NC(=O)c1cccc(-c2ccccc2)n1)[C@@H](C)O)B(O)O` . Reported clearance?
23.3

----------
Property: half-life; scope: individual compounds
protocol.notes: Metabolic stability in dog liver microsomes
Type: ADME, Canis lupus familiaris, Microsome

Item under review: CC(C)C[C@H](NC(=O)[C@@H](NC(=O)c1cccc(-c2ccccc2)n1)[C@@H](C)O)B(O)O [DELANZOMIB] . Reported half-life?
> 40 min

Would you kindly look at the next entry?
Item under review: CC(C)C[C@H](NC(=O)[C@H](Cc1ccccc1)NC(=O)c1cnccn1)B(O)O [BORTEZOMIB] . Reported half-life?
> 40 min
